tgt: Peptide 1: Biotin-…-[Tyr(PC)]-acid
Sequence (peptide, as listed by the source): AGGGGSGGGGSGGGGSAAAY
assay-info: scFv ELISA
# OD450 annotations

{"binder": "PcOxP_DB03_G11 (scFv, V domains shown, scFv in periplasmic extract) VH: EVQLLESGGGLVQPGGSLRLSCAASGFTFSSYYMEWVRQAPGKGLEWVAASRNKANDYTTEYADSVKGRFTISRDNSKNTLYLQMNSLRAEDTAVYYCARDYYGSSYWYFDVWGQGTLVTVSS VL: DIVMTQSPDSLAVSLGERATINCKSSQSVLSSKHKKNYLAWYQQKPGQPPKLLIYGASNRYIGVPDRFSGSGSGTDFTLTISSLQAEDVAVYYCAQFYSYPLTFGGGTKVEIK", "OD450": "0.26 OD450"}
{"binder": "PcOxP_DB04_D12 (scFv, V domains shown, scFv in periplasmic extract) VH: EVQLLESGGGLVQPGGSLRLSCAASGFTFSDQYMEWVRQAPGKGLEWVAASRNKANDWTTEYADSVKGRFTISRDNSKNTLYLQMNSLRAEDTAVYYCARDYYGSSYWYFDVWGQGTLVTVSS VL: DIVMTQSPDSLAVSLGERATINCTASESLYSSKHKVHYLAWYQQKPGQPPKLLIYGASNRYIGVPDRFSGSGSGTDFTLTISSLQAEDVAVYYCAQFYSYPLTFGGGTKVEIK", "OD450": "0.64 OD450"}
